Just for reference, ChEMBL document CHEMBL3804826 is where these values come from.

- Test System: UniProtKB Q9UDY8
- Sequence (Q9UDY8 whole entry): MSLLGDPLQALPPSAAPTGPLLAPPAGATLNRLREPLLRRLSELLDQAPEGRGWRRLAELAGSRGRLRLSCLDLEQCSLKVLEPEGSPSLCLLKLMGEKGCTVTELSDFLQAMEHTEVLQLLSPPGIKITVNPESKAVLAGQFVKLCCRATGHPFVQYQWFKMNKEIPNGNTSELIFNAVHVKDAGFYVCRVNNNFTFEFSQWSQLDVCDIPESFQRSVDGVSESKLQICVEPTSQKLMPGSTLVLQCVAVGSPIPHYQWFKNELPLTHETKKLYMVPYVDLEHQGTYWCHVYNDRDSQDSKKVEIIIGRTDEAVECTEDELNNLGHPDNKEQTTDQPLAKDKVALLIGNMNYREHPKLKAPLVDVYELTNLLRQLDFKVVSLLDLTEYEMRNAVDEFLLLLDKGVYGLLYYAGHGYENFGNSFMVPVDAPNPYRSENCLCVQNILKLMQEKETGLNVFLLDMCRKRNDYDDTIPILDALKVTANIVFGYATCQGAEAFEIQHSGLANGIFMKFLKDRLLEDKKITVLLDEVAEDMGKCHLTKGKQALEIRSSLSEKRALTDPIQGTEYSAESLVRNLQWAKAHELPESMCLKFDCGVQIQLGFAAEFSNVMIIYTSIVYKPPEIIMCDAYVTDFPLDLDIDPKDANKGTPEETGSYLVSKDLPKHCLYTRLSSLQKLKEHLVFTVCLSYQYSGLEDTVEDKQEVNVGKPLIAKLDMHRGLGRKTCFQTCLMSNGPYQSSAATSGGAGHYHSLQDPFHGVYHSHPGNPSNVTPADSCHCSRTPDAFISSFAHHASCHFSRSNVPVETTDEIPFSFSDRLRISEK
- Assay: Inhibition of MALT1 (unknown origin) expressed in human Jurkat Clone K22 29Q_H23 cells assessed as IL2 production preincubated for 30 mins followed by PMA stimulation for 5.5 hrs by luciferase reporter gene assay
- Assay type: cell-based

{"Compound": "CO[C@@H](C)c1c(NC(=O)Nc2cncc(C(F)(F)F)c2)cnc2cc(C)nn12", "IC50, nM": 52}
{"Compound": "COCC(c1c(NC(=O)Nc2cnc(-n3nccn3)c(Cl)c2)cnc2cc(Cl)nn12)C1CC1 (stereo not drawn)", "IC50, nM": 28}
{"Compound": "CC(C)c1c(NC(=O)Nc2cnc(N3CCCS3(=O)=O)c(C(F)(F)F)c2)cnc2cc(Cl)nn12", "IC50, nM": 248}
